Provenance of the data: paper PMC6858350

Recorded measurements of inhibition at 10 µM, one per entry
Molecular target: GluN1-1a/GluN2B NMDAR (wildtype) (Rattus norvegicus, UniProt P35439+Q00960)
Assay type: cell-based
Settings: read-out: ion current inhibition % ± SEM, GluN2B
Express your answer in %, writing the number without its unit.

Please review the entries below; each comes with its answer.
[[record]]
compound = "Oc1ccc2c(c1)CCN(CCCCc1ccccc1)C[C@H]2O [compound (S)-1]"
quantity_name = "inhibition at 10 µM"
test_result = 93

[[record]]
compound = "Oc1ccc2c(c1)CCN(CCCCc1ccccc1)C[C@@H]2O [compound (R)-1]"
quantity_name = "inhibition at 10 µM"
test_result = 95

[[record]]
compound = "C[C@@H]1[C@H](O)c2ccc(O)cc2CCN1CCCCc1ccccc1 [compound 2]"
quantity_name = "inhibition at 10 µM"
test_result = 95


Okay, next one:
Give the value of inhibition at 10 µM reported for the following: CC(C(O)c1ccc(O)cc1)N1CCC(Cc2ccccc2)CC1 (stereo not shown) [ifenprodil, reference compound]
91

* * *

Below, each of the compounds is paired with its reported inhibition at 10 µM value.
Target: GluN1-1a/GluN2C NMDAR (Rattus norvegicus, UniProt P35439+Q00961)
Sequence (Q00961 20-1237, other chains not shown): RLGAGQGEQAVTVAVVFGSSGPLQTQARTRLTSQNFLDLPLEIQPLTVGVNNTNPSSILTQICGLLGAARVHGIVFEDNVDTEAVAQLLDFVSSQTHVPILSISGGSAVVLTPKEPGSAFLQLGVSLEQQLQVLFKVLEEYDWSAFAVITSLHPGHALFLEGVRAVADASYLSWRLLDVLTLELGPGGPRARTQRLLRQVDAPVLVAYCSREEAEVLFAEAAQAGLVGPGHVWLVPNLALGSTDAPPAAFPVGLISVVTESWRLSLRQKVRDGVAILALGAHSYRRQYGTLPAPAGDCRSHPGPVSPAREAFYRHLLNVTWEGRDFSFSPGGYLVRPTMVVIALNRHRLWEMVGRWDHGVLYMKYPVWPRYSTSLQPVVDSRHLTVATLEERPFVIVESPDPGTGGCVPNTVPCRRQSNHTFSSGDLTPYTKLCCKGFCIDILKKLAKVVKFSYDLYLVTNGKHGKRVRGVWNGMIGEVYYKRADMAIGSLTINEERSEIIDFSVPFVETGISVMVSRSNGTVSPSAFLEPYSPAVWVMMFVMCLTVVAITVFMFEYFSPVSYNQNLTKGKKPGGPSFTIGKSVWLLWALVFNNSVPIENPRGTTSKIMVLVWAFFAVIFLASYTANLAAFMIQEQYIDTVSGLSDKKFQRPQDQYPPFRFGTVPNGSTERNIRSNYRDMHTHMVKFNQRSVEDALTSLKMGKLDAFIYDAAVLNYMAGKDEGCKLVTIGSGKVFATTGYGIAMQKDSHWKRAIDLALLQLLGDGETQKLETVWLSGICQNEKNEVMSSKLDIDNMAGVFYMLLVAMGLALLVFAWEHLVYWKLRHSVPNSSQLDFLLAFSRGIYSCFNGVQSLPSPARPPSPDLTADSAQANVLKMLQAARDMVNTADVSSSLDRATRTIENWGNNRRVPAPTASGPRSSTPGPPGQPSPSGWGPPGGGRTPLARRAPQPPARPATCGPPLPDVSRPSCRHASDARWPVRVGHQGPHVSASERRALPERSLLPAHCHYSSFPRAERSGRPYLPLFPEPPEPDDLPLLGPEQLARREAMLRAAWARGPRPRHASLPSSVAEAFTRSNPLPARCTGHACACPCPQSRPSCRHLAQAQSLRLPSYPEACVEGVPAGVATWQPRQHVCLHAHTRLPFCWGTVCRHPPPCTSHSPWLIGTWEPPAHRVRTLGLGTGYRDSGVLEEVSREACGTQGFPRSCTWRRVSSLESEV
Test: cell-based
Conditions: read-out: ion current inhibition % ± SEM, GluN2C
Number in %, nothing else.

[[record]]
compound = "Oc1ccc2c(c1)CCN(CCCCc1ccccc1)C[C@@H]2O [compound (R)-1]"
units = "%"
test_result = 8

[[record]]
compound = "CC(C(O)c1ccc(O)cc1)N1CCC(Cc2ccccc2)CC1 (stereo not shown) [ifenprodil, reference compound]"
units = "%"
test_result = 9

[[record]]
compound = "Oc1ccc2c(c1)CCN(CCCCc1ccccc1)C[C@H]2O [compound (S)-1]"
units = "%"
test_result = 19


Consider now this further compound.
// output inhibition at 10 µM; input C[C@@H]1[C@H](O)c2ccc(O)cc2CCN1CCCCc1ccccc1 [compound 2] ; system GluN1-1a/GluN2C NMDAR (Rattus norvegicus, UniProt P35439+Q00961)
56

* * *

p (slope) values, listed per item
Molecular target: GluN1-1a F113S/GluN2B WT (Rattus norvegicus, UniProt P35439+Q00960, F113S)
Settings: GluN1-1a F113S
Give only the figure.

// solved cases for p (slope) follow
[[record]]
compound = "Oc1ccc2c(c1)CCN(CCCCc1ccccc1)C[C@H]2O [compound (S)-1]"
test_result = 0.87

[[record]]
compound = "Oc1ccc2c(c1)CCN(CCCCc1ccccc1)C[C@@H]2O [compound (R)-1]"
test_result = 0.50

[[record]]
compound = "CC(C(O)c1ccc(O)cc1)N1CCC(Cc2ccccc2)CC1 (stereo not shown) [ifenprodil, reference compound]"
test_result = 1.09


Shift focus to the following entry.
Consider the compound `C[C@@H]1[C@H](O)c2ccc(O)cc2CCN1CCCCc1ccccc1` and give its recorded p (slope).
0.57

* * *

Measured A2 ± SE of individual entries
Target: GluN1-1a L135N/GluN2B WT (Rattus norvegicus, UniProt P35439+Q00960, L135N)
Details: GluN1-1a L135N, flexible A2
Form entry: value (%) — number only.

Sample answers from the record:
[[record]]
molecule = "Oc1ccc2c(c1)CCN(CCCCc1ccccc1)C[C@H]2O [compound (S)-1]"
target_system = "GluN1-1a L135N/GluN2B WT (Rattus norvegicus, UniProt P35439+Q00960, L135N)"
test_result = 68

[[record]]
molecule = "Oc1ccc2c(c1)CCN(CCCCc1ccccc1)C[C@@H]2O [compound (R)-1]"
target_system = "GluN1-1a L135N/GluN2B WT (Rattus norvegicus, UniProt P35439+Q00960, L135N)"
test_result = 72

[[record]]
molecule = "C[C@@H]1[C@H](O)c2ccc(O)cc2CCN1CCCCc1ccccc1"
target_system = "GluN1-1a L135N/GluN2B WT (Rattus norvegicus, UniProt P35439+Q00960, L135N)"
test_result = 100


Next:
Write down the reported A2 ± SE (system: GluN1-1a L135N/GluN2B WT (Rattus norvegicus, UniProt P35439+Q00960, L135N)) of CC(C(O)c1ccc(O)cc1)N1CCC(Cc2ccccc2)CC1 (stereo not shown) [ifenprodil, reference compound]
76

* * *

Target: GluN1-1a/GluN2D NMDAR (Rattus norvegicus, UniProt P35439+Q62645)
Sequence (Q62645 28-1323, other chains not shown): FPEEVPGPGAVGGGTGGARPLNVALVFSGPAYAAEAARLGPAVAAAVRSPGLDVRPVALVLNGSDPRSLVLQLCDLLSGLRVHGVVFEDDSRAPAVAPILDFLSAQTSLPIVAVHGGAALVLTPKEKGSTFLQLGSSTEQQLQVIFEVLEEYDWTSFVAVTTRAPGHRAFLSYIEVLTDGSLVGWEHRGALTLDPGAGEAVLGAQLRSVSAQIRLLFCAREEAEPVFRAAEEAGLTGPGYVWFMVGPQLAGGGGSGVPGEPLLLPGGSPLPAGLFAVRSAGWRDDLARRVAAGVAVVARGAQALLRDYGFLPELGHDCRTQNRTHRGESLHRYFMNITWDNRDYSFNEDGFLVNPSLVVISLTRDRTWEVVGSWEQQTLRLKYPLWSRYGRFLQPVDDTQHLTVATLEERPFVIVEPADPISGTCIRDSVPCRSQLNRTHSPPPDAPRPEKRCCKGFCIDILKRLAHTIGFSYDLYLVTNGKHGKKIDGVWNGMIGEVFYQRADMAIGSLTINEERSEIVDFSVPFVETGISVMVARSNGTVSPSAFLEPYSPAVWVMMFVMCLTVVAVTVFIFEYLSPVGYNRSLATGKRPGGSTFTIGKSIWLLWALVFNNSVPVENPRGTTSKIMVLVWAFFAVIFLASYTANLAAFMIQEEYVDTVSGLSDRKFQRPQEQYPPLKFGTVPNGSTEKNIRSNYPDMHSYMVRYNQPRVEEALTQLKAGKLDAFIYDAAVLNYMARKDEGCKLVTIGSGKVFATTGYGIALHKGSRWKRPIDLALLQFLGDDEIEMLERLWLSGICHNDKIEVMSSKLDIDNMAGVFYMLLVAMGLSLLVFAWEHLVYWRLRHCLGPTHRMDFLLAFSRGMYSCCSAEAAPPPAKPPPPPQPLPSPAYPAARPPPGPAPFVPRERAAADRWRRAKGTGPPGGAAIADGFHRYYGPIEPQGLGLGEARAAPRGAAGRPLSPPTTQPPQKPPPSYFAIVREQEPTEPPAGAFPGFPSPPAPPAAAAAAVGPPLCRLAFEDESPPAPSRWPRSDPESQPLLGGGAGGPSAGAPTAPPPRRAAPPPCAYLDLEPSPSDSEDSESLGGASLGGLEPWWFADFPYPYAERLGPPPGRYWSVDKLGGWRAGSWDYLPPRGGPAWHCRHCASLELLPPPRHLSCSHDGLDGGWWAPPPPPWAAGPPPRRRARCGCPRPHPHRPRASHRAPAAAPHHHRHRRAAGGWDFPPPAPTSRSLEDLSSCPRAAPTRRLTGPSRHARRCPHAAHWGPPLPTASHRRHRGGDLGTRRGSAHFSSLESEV
Assay: cell-based
Details: read-out: ion current inhibition % ± SEM, GluN2D
// reported inhibition at 10 µM per item
Give a bare numeral; the unit % is implied.

Return inhibition at 10 µM (reported value) for this compound: `C[C@@H]1[C@H](O)c2ccc(O)cc2CCN1CCCCc1ccccc1`
55

Provide measured inhibition at 10 µM value, entry: Oc1ccc2c(c1)CCN(CCCCc1ccccc1)C[C@@H]2O [compound (R)-1]
18

// fetch inhibition at 10 µM given entry Oc1ccc2c(c1)CCN(CCCCc1ccccc1)C[C@H]2O [compound (S)-1]
21

Note inhibition at 10 µM for the compound shown: CC(C(O)c1ccc(O)cc1)N1CCC(Cc2ccccc2)CC1 (stereo not shown) [ifenprodil, reference compound]
24

* * *

List of p (slope) values.
Molecular target: GluN1-1a WT/GluN2B F114A (Rattus norvegicus, UniProt P35439+Q00960, F114A)
Sequence (Q00960 27-1482 F114A, other chains not shown): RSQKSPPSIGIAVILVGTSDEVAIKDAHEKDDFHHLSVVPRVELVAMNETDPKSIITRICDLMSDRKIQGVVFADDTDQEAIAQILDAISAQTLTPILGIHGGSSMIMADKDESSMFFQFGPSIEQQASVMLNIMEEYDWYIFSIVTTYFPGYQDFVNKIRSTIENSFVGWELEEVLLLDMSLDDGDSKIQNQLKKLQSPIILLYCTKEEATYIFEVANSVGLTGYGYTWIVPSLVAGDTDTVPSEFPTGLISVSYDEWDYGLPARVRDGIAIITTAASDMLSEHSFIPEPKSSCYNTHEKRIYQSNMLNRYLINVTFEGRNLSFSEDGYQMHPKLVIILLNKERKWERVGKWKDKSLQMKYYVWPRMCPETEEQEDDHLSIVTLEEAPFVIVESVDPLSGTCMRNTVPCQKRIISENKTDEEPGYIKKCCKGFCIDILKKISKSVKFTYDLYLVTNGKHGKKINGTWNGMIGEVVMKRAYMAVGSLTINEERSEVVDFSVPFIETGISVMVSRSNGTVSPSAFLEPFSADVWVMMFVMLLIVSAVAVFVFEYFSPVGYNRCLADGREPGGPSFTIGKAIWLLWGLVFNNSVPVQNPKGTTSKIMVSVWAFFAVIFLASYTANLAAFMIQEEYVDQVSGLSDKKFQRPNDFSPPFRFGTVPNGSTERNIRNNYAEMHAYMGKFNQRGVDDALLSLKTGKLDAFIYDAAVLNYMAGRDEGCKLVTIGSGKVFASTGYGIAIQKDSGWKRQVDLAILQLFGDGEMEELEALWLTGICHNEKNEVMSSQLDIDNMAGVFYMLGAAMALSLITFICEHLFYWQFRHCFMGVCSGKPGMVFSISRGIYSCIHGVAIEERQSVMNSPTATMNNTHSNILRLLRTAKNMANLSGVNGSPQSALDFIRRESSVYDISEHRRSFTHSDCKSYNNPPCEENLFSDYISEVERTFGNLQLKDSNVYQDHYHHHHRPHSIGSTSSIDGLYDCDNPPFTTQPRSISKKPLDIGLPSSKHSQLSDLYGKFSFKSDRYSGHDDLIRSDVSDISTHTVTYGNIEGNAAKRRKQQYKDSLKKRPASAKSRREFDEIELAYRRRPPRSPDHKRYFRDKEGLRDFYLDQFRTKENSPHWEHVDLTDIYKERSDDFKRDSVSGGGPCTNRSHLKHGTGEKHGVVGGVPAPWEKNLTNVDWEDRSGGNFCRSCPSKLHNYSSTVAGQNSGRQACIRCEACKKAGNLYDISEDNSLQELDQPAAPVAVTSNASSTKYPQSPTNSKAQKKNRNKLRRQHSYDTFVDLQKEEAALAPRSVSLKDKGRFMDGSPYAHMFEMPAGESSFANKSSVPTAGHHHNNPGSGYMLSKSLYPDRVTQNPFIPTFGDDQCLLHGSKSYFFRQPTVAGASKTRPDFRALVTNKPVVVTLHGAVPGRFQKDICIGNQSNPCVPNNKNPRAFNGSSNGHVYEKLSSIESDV
Settings: GluN2B F114A
Please reply with the value in numeric form only.

Known results for compounds:
[[record]]
compound = "Oc1ccc2c(c1)CCN(CCCCc1ccccc1)C[C@@H]2O [compound (R)-1]"
test_result = 1.35

[[record]]
compound = "C[C@@H]1[C@H](O)c2ccc(O)cc2CCN1CCCCc1ccccc1"
test_result = 1.03

[[record]]
compound = "Oc1ccc2c(c1)CCN(CCCCc1ccccc1)C[C@H]2O [compound (S)-1]"
test_result = 1.26


Next, consider the following compound.
For the compound CC(C(O)c1ccc(O)cc1)N1CCC(Cc2ccccc2)CC1 (stereo not shown) [ifenprodil, reference compound] , report p (slope).
0.63

* * *

List of p (slope) values.
Molecular target: GluN1-1a WT/GluN2B F176A (Rattus norvegicus, UniProt P35439+Q00960, F176A)
Conditions: GluN2B F176A

[[record]]
molecule = "C[C@@H]1[C@H](O)c2ccc(O)cc2CCN1CCCCc1ccccc1"
test_result = 0.94

[[record]]
molecule = "CC(C(O)c1ccc(O)cc1)N1CCC(Cc2ccccc2)CC1 (stereo not shown) [ifenprodil, reference compound]"
test_result = 0.87

[[record]]
molecule = "Oc1ccc2c(c1)CCN(CCCCc1ccccc1)C[C@@H]2O [compound (R)-1]"
test_result = 0.40


Continue with the next molecule.
Find p (slope) for Oc1ccc2c(c1)CCN(CCCCc1ccccc1)C[C@H]2O [compound (S)-1] on GluN1-1a WT/GluN2B F176A (Rattus norvegicus, UniProt P35439+Q00960, F176A) and write it down.
1.00
